molecular target: HA-tagged mouse-human-mouse chimeric TGF-β1, mouse LAP residues 87-135 replaced by the corresponding human LAP segment, on HEK-293T cells co-transfected with GARP (mouse; human) (UniProt P04202); experiment: flow cytometry, HEK-293T cells co-transfected with mGarp and the HA-tagged TGF-β1 construct
readout_type: % binding relative to WT TGF-β1 (100 %)
Report as a plain number; the unit % is understood.

Entry LHT-15 (13E7) (antibody, V domains shown) VH: EVQLVESGGDLVQPGGSLRLSCAASGFTFSSYWMDWVRQAPGKGLEWVSRITNSGGTAFYTDSVEGRFTISRDNAKNTLYLQMNSLKSEDTAVYYCLRYITRAQLMGAWDYWGQGTQVTVSS VL: ATMLTQSPGSLSVVPGESASISCKASQSLVHTDGKTYLSWLLQKPGQRPQLLIYQVSNRASGVPDRFTGSGSGTDFTLKISGVKAEDAGVYYCAQSTYYPYDFGSGTRLEIR : reported % binding relative to WT TGF-β1 (100 %) = ? 101

What value of % binding relative to WT TGF-β1 (100 %) has been recorded for this entry: LMT-12 (14D7) (antibody, V domains shown) VH: EVQLVESGGGLVQPGGSLRLSCAASGFTFSSYYMYWVRQAPGKGLEWVSGTSIGGGSTWYADSVKGRFTISRDNAKNTLYLQMNNLKSEDTAVYYCAKDLNSRSYKGMGDWGQGTQVTVSS VL: QPALTQLSSMSGSPGQTVTITCTGSSSNIGGGYYLNWYQQLPGAAPKLVIYNANNRASGVPDRFSGSKSGNLASLTITGLQAEDEAVYFCGCYDSSLSSVVFGGGTHLTVL 99

Look up % binding relative to WT TGF-β1 (100 %) for this binder: LMT-2 (6D12) (antibody, V domains shown) VH: EVQLVESGGGLVQPGGSLRLSCAASGFTFSNYGVHWVRQAPGKGLEWVSHISAAGISRYYADAVKGRFTMSRDNGKNTLYLQMNGLKSEDTAVYYCAKDRIRSSYEYDSWGQGTQVTVSS VL: LPVLTQLSSMSGSPGQTVTITCTGSSSNIGGGYYLSWYQQLPGTAPKLLIYNANNRASGVPNRFSGSKSGNLASLTITGLQAEDEADYYCGCYDSSLSTGYVFGGGTKLTVL 157

# get_value(readout='% binding relative to WT TGF-β1 (100 %)', item= LMT-9 (20G3) (antibody, V domains shown) VH: LQLVESGGGLVQPGGSLRLSCAASGFTFSRSGMAWVRQAPGKGLEWVSAITPGGTATYYANSVKGRVTMSRDNAKNTLYLQMNSLKSEDTAVYYCAKGLVSSGLNGMDYWGKGTLVTVSS VL: QSVLTQLSSMSGSPGQTVTITCTGSSSNIGGGYYLSWYQQLPGTAPKLLIYNTNNRASGVPNRFSGSKTGSLASLTITGLQAEDEADYYCGCYDDSLNTYVFGGGTKLTVL ) 164

Requested read-out: % binding relative to WT TGF-β1 (100 %). Entry: LMT-10 (20G4) (antibody, V domains shown) VH: QVQLVESGGGLVQPGGSLTLSCAASGFTFSNYYMTWVRQAPGKGLEWVSSIYSTGSHTYYADSVKGRFTISRDNAKDTLYLQMNDLKSEDTAVYYCAKNIYTYYTAHYAGMDYWGKGTLVTVSS VL: QSALTQPSTVSVSLGQMARITCQGGSLGSYDAHWYQQKPGQAPVLVIHDDNSRPSGIPERFSGSRSGGTATLTISGAQADDEGVYFCHSYDSSANAPVFGGGTELTVL 158
